# target or system: human CCR4 (Homo sapiens, UniProt P51679)
# Sequence (P51679 whole entry): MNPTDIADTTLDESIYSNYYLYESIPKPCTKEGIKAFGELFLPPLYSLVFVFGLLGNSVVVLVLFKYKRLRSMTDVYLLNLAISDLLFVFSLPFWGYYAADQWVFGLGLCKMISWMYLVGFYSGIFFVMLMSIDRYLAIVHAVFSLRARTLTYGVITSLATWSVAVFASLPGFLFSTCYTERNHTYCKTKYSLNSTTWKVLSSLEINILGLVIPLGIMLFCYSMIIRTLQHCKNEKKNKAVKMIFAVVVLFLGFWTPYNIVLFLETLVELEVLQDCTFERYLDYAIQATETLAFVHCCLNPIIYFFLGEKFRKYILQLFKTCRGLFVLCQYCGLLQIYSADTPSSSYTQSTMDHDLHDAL
# method notes: Inhibition of MDC-induced transient Ca ion increase in CCR4/CHO cells
# condition details: human CCR4 stably overexpressing CHO cell; recombinant human MDC 10 nM; read-out: IC50 value, inhibition of Ca2+ transient increase by MDC
test readout: pIC50
FYI, pIC50 means -log10 of a concentration in mol per litre.

What value of measured pIC50 is listed for Cc1ccc(S(=O)(=O)Nc2ncc(Br)nc2OCc2cccnc2)cc1 ?
6.89

Would you mind doing COc1ccc(COc2nc(Br)cnc2NS(=O)(=O)c2ccc(C)cc2)cc1OC as well?
7.80
